system: CD8+ T cells; test: CD4+/CD8+ analysis of 20-mer peptides (intracellular IFN-γ staining or depletion ELISPOT); assay type: cell-based, human; details: donor eight
# binarize Responding cells (% CD8): threshold 0.05% inclusive, high side y, low side n

Solved entries (count: 4):
- input sequence: "GAAQGDDDVWTSGSDSDEEL"
  category label: "n"
- input sequence: "SICPSQEPMSIYVYALPLKM"
  category label: "y"
- input sequence: "SSSSSSCSSASDSESESEEM (human cytomegalovirus IE2 CTL epitope peptide)"
  category label: "n"
- input sequence: "VTTERKTPRVTGGGAMAGAS"
  category label: "y"

Q: # bool: Responding cells (% CD8) of "QQNQWKEPDVYYTSAFVFPT" >= 0.05%
A: n
